- tgt: Melanocortin receptor 3 (Homo sapiens, UniProt P41968)
- Sequence (P41968 whole entry): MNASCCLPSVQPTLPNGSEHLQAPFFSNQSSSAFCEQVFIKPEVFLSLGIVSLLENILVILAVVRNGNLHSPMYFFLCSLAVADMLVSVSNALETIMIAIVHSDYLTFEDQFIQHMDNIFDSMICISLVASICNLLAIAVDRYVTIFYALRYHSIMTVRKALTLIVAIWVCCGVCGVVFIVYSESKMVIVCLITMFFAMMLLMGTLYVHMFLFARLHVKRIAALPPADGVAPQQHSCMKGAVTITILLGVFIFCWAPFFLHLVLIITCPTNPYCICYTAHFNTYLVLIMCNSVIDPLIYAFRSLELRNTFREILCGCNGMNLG
- method_description: Binding affinity towards Melanocortin 3 receptor using [125I]NDP-MSH
pKi: −log10 of the molar value.
readout_label: pKi

O=C(N[C@H](Cc1ccc(Cl)cc1)C(=O)N1CCN(C2(Cn3cncn3)CCCCC2)CC1)C1Cc2ccccc2CN1 (some centres undefined) | 5.25
O=C(N[C@H](Cc1ccc(Cl)cc1)C(=O)N1CCN(C2CCCCC2)CC1)C1Cc2ccccc2CN1 (some centres undefined) | 5.17

P: O=C(N[C@H](Cc1ccc(Cl)cc1)C(=O)N1CCN(C2(Cn3cncn3)CCCC2)CC1)C1Cc2ccccc2CN1 (some centres undefined)
Q: O=C(N[C@H](Cc1ccc(Cl)cc1)C(=O)N1CCN(C2CCCCC2Cn2cncn2)CC1)C1Cc2ccccc2CN1 (some centres undefined)
[ask] Between P and Q , which one has the lower reported pKi value? The response must carry the label of the picked entry.
[reply] P
(P: 5.06, Q: 5.28)
